MIC reference
- Test system: Cryptococcus neoformans

Example compounds with recorded MIC:
CN(Cc1cn(-c2ccccc2)nn1)Cc1cc2cc(OCCCC3CCN(Cc4ccccc4)CC3)ccc2n1C.Cl | > 32 µg/mL
CC1=C(C(=O)OC(C)(C)C)C(c2ccccc2)C(C#N)=C(N)O1 (configuration not stated) | > 32 µg/mL
COc1ccc2[nH]c3nc4c(c(N)c3c2c1)CCCC4 | 32 µg/mL
N#Cc1c(N)[n+]([O-])c2ccccc2[n+]1[O-] | > 32 µg/mL
Nc1c2c(nc3c1CC(c1ccccc1)C(=O)N3)CCCC2 (configuration not stated) | > 32 µg/mL

MIC reported for this compound C#CCNCc1cc2cc(OCc3ccccc3)ccc2[nH]1.Cl : > 32 µg/mL

MIC reported for this compound COc1ccc(OC)c2nc(Cl)c(C=O)cc12 : > 32 µg/mL

MIC reported for this compound OCc1ccc(O)c2ncccc12 : 16 µg/mL

MIC reported for this compound C#CCN(C)Cc1cc2cc(OCCCC3CCN(Cc4ccccc4)CC3)ccc2[nH]1.O=C(O)C(=O)O : > 32 µg/mL

MIC reported for this compound Cl.ClCc1ccncc1 : > 32 µg/mL

MIC reported for this compound N#CC1=C(N)Oc2c(ccc3ccccc23)C1c1ccc([N+](=O)[O-])cc1 (configuration not stated) : > 32 µg/mL

MIC reported for this compound Oc1ccc(CCl)c2cccnc12 : 16 µg/mL
